Assay: Ratio of drug uptake in brain to plasma of Dunkin-Hartley guinea pig LPS-induced hyperalgesia pain model at 100 mg/kg, po administered 2 hrs prior to LPS challenge measured 7 hrs post dose
Type: ADME, organism-based, Cavia porcellus
Conditions: read-out: BPR
experimentalEndpoint: Kp at 7 h
One number for each entry.

stdin: // lookup Kp at 7 h for CC1(C)Cc2c(c(C(=O)Nc3ccc(F)c(C(F)(F)F)c3)cc3nc(Nc4c(F)cccc4Cl)[nH]c23)O1
stdout: 1.06

###

Assay: Cmax in Dunkin-Hartley guinea pig at 10 mg/kg, po
Format: ADME, organism-based, Cavia porcellus
Design: dose 10 mg/kg, route oral
Conditions: in vivo
Would you mind telling me the reported Cmax of each entry?
Give bare numbers, in µg/mL.

As a guide, the following entries are already answered.
CC1(C)Cc2c(c(C(=O)Nc3ccc(F)c(C(F)(F)F)c3)cc3nc(Nc4c(F)cccc4Cl)[nH]c23)O1 :: 0.361
Cc1cccc(Cl)c1Nc1nc2cc(C(=O)Nc3cc(C(F)(F)F)ccc3F)c3c(c2[nH]1)CC(C)(C)O3 :: 0.08

Now consider the entry below.
stdin: // lookup Cmax for CC1(C)Cc2c(c(C(=O)Nc3ccc(C(F)(F)F)cn3)cc3nc(Nc4c(Cl)cccc4Cl)[nH]c23)O1
stdout: 0.091

###

Biological target: UniProt P47712
Sequence (whole entry): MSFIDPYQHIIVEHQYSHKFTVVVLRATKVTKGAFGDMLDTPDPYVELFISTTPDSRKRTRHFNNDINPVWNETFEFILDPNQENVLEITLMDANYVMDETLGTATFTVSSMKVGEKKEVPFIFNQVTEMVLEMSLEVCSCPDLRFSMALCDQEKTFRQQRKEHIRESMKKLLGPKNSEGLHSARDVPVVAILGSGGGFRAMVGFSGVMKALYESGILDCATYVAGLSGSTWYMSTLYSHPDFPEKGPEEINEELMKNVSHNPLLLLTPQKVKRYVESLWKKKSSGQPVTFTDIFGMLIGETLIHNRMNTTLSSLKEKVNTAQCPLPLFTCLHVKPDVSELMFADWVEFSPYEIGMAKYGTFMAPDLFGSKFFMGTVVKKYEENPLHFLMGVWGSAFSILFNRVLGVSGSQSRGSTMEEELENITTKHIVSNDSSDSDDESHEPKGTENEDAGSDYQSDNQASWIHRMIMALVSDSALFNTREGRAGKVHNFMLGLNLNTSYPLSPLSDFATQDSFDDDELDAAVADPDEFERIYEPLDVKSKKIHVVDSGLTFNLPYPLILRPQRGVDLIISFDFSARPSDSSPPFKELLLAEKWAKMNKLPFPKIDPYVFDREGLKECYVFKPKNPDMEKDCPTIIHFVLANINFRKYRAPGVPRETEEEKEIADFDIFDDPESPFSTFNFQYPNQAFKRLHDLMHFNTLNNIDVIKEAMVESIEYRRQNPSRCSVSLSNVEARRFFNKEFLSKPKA
Experiment: Inhibition of cPLA2 (unknown origin) at 10 uM relative to control
experimentalEndpoint: inhibition (%)
One number for each entry, in %.

Cn1c(Nc2c(F)cccc2Cl)nc2cc(C(=O)Nc3cccc(C(F)(F)F)c3)c3c(c21)CC(C)(C)O3 :: 10.6
CC1(C)Cc2c(c(C(=O)Nc3cc(C(F)(F)F)ccc3F)cc3nc(Nc4c(F)cccc4Cl)[nH]c23)O1 :: 22.9
CC1(C)Cc2c(c(C(=O)Nc3ccc(C(F)(F)F)cn3)cc3nc(Nc4c(Cl)cccc4Cl)[nH]c23)O1 :: 4.3

stdin: // lookup inhibition for Cc1cccc(Cl)c1Nc1nc2cc(C(=O)Nc3cc(C(F)(F)F)ccc3F)c3c(c2[nH]1)CC(C)(C)O3
stdout: 5.1
